# test: Cytotoxicity against Spodoptera frugiperda Sf9 cells by MTT assay
# Assay type: cell-based
# conditions-used: read-out: LD50 (the source's name)
property-label: CC50 (µg/mL)
Respond numerically; units are µg/mL and should not be typed.

| molecule | property-label | recorded-result |
| --- | --- | --- |
| CC(=O)OC[C@]12[C@H](OC(C)=O)[C@H](OC(C)=O)[C@@H]3[C@@H](OC(C)=O)[C@@]14O[C@@]3(C)COC(=O)c1cccnc1C(C)C(C)C(=O)O[C@@H]([C@H](OC(C)=O)[C@@H]2OC(C)=O)[C@]4(C)O (some centres undefined) | CC50 | 49.6 |

Input: Data request, read-out CC50, for CC(=O)OC[C@]12[C@H](OC(C)=O)[C@H](OC(C)=O)[C@@H]3[C@@H](OC(C)=O)[C@@]14O[C@@]3(C)COC(=O)c1cccnc1C(C)C(C)C(=O)O[C@@H]([C@H](O)[C@@H]2OC(C)=O)[C@]4(C)O (some centres undefined)
Output: 57.5
